- test method notes: Solubility of compound in fed state simulated intestinal fluid of pH 5 at 1 mg/ml measured after 18 to 24 hrs by HPLC-UV based analysis
- Type: ADME
- condition set: time 18-24 hrs
measured parameter: solubility (µg/mL)
Entry rule: numbers only, all in µg/mL.

The recorded solubility for CC1CN(c2ccncc2NC(=O)c2ccnn3cc(-c4ccccc4)nc23)CCO1 (racemic) is 788

---

- test method notes: Cmax in 8 hr fasted C57BL6 mouse at 10 mg/kg, po
- Assay type: ADME, organism-based
- Design: dose 10 mg/kg, route po
- condition set: in vivo
measured parameter: Cmax
Answer format: number, then unit.

// Cmax lookup, compound = O=C(Nc1cnccc1N1CCOCC1)c1ccnn2cc(-c3ccccc3)nc12 , result: 10.7 µM

Cmax reading for CC1CN(c2ccncc2NC(=O)c2ccnn3cc(C4CC4)nc23)CCO1 (stereo not drawn) : 1.3 µM

Turning to the following compound.
Note to self: Cmax recorded for CC1CN(c2ccncc2NC(=O)c2ccnn3cc(-c4ccccc4)nc23)CCO1 (racemic) was 7.8 µM

---

- experimental target: Interleukin-1 receptor-associated kinase 1 (Homo sapiens, UniProt P51617)
- Sequence (P51617 whole entry): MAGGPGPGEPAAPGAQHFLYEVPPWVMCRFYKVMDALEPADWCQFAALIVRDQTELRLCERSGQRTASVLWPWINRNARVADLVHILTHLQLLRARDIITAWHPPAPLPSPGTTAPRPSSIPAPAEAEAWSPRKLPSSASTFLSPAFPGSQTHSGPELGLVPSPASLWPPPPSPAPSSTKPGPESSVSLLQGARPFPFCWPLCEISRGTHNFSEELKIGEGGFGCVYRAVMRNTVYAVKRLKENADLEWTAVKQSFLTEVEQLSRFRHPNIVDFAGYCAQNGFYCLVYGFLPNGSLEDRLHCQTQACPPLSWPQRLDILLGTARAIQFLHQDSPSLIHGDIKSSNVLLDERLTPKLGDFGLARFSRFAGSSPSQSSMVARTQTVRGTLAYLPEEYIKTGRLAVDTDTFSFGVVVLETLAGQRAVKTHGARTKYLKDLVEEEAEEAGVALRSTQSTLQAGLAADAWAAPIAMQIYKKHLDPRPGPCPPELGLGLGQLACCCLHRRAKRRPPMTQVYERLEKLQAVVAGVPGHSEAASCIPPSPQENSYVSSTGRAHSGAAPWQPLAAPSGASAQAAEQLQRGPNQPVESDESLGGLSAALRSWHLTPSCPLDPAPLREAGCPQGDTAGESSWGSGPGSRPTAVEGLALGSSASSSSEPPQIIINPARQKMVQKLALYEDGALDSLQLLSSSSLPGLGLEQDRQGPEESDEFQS
measured parameter: IC50

Reported Interleukin-1 receptor-associated kinase 1 (Homo sapiens, UniProt P51617) IC50 for item CC1CN(c2ccncc2NC(=O)c2ccnn3cc(-c4ccccc4)nc23)CCO1 (racemic) was > 2 µM

---

- experimental target: Serine/threonine-protein kinase pim-1 (Homo sapiens)
- Sequence (P11309 whole entry): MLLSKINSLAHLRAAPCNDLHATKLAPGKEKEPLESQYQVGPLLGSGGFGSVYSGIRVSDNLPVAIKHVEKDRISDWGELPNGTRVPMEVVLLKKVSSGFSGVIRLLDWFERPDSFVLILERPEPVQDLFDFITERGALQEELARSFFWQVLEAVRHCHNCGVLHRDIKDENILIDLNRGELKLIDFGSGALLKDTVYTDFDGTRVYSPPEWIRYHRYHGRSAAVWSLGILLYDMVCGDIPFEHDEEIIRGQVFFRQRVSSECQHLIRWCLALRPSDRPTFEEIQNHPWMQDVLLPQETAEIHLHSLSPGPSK
measured parameter: IC50 (nM)
Give the quantity in nM, number only.

For this compound ( CC1CN(c2ccncc2NC(=O)c2ccnn3cc(-c4ccccc4)nc23)CCO1 (racemic) ), measured IC50 is 380

---

- test method notes: Aqueous solubility of compound in potassium phosphate buffer at pH 7.4 at 1 mg/ml measured after 18 to 24 hrs by HPLC-UV based analysis
- Format: physicochemical
- condition set: time 18-24 hrs
measured parameter: solubility (µg/mL)
A number alone suffices; assume µg/mL.

solubility in this record for CC1CN(c2ccncc2NC(=O)c2ccnn3cc(-c4ccccc4)nc23)CCO1 (racemic) : 14

---

- test method notes: Volume of distribution at steady state in 8 hr fasted C57BL6 mouse at 2 mg/kg, iv
- Type: ADME, organism-based
- condition set: in vivo, read-out: Vdss
measured parameter: Vd (L/kg)
Use L/kg as the unit, but write only the number.

Take a look at these entries with their results.
The molecule CC1CN(c2ccncc2NC(=O)c2ccnn3cc(C4CC4)nc23)CCO1 (stereo not drawn) showed Vd equal to 1.9

Recorded result, CC1CN(c2ccncc2NC(=O)c2ccnn3cc(-c4ccccc4)nc23)CCO1 (racemic) , Vd: 1.1

Kindly consider the entry below.
The molecule identified as O=C(Nc1cnccc1N1CCOCC1)c1ccnn2cc(-c3ccccc3)nc12 registered its Vd at 1.5

---

- experimental target: Tyrosine-protein kinase Lck (Homo sapiens, UniProt P06239)
- Sequence (P06239 whole entry): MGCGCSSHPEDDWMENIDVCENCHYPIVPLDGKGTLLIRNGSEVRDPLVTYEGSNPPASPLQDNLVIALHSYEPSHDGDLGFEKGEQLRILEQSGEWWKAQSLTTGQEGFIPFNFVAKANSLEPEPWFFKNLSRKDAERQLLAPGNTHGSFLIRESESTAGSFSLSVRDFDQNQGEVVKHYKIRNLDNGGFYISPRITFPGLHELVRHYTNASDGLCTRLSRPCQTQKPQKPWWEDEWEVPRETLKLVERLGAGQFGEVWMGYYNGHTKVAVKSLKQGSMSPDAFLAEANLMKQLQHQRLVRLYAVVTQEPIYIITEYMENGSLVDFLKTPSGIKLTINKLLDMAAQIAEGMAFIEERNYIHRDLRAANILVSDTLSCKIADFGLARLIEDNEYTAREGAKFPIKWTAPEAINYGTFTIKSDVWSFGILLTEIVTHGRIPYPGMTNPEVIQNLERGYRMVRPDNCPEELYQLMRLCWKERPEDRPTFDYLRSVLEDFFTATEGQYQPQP
measured parameter: IC50

Data point: CC1CN(c2ccncc2NC(=O)c2ccnn3cc(-c4ccccc4)nc23)CCO1 (racemic) ; IC50 = > 2000 nM

---

- test method notes: Oral bioavailability in 8 hr fasted C57BL6 mouse at 10 mg/kg
- Type: ADME, organism-based
- condition set: in vivo
Each record here notes measured bioavailability.
Just the number please, in %, no unit attached.

In the examples that follow, each entry is paired with its recorded bioavailability.
Kindly note the recorded bioavailability for O=C(Nc1cnccc1N1CCOCC1)c1ccnn2cc(-c3ccccc3)nc12 , which is 100

bioavailability recorded for this molecule, CC1CN(c2ccncc2NC(=O)c2ccnn3cc(-c4ccccc4)nc23)CCO1 (racemic) , is 64

Others:
// recorded bioavailability for CC1CN(c2ccncc2NC(=O)c2ccnn3cc(C4CC4)nc23)CCO1 (stereo not drawn) : 37

---

Quick reference: MRT of the listed items.
- test method notes: MRT in 8 hr fasted C57BL6 mouse at 2 mg/kg, iv
- Assay type: ADME, organism-based
- condition set: in vivo
Please state the figure in h; there is no need to write the unit.

Some compounds with known MRT results, for comparison:
Entry under test: O=C(Nc1cnccc1N1CCOCC1)c1ccnn2cc(-c3ccccc3)nc12 . Its MRT was 2.4

// CC1CN(c2ccncc2NC(=O)c2ccnn3cc(C4CC4)nc23)CCO1 (stereo not drawn) : MRT value = 0.6

Could you now consider this next compound?
The reported MRT of the compound CC1CN(c2ccncc2NC(=O)c2ccnn3cc(-c4ccccc4)nc23)CCO1 (racemic) was 4.8

---

- experimental target: Tyrosine-protein kinase ITK/TSK (Homo sapiens)
- Sequence (Q08881 whole entry): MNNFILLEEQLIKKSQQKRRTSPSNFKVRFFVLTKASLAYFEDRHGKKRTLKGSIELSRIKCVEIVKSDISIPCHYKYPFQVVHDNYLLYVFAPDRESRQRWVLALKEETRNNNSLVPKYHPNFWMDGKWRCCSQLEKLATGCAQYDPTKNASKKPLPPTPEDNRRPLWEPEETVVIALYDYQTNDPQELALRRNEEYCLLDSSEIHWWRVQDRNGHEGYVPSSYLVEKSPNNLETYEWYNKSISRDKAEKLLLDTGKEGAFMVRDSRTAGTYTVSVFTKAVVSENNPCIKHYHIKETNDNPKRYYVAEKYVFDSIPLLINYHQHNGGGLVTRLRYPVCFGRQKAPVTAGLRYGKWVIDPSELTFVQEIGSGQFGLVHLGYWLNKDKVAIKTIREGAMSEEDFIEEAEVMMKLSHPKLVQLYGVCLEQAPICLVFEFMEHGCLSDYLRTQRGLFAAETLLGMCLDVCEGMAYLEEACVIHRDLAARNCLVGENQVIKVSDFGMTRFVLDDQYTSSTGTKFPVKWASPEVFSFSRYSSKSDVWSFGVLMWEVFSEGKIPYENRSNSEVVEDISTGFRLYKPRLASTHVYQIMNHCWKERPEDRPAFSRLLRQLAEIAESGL
measured parameter: IC50

IC50 reported for this compound CC1CN(c2ccncc2NC(=O)c2ccnn3cc(-c4ccccc4)nc23)CCO1 (racemic) : > 2000 nM

---

Attribute: Papp A→B at 2 h, 3 µM
- test method notes: Permeability across apical to basolateral side in human Caco-2 cells at 3 uM incubated for 2 hrs by LC-MS/MS analysis
- Format: ADME, cell-based
- condition set: read-out: permeability
Unit ×10⁻⁶ cm/s implied. Number only.

Consider the worked cases shown below.
Recorded result, O=C(Nc1cnccc1N1CCC(F)(F)CC1)c1ccnn2cc(-c3ccccc3)nc12 , Papp A→B at 2 h, 3 µM: 7

Please fill in: Papp A→B at 2 h, 3 µM reported for CC1CN(c2ccncc2NC(=O)c2ccnn3cc(C4CC4)nc23)CCO1 (centres undefined) = 22.3

The measured Papp A→B at 2 h, 3 µM associated with O=C(Nc1cnccc1N1CCOCC1)c1ccnn2cc(-c3ccccc3)nc12 reads 32.2

Please turn your attention to the following entry.
Just so you know, measured Papp A→B at 2 h, 3 µM for CC1CN(c2ccncc2NC(=O)c2ccnn3cc(-c4ccccc4)nc23)CCO1 (racemic) came out at 13.8

---

- test method notes: Aqueous solubility of compound in potassium phosphate buffer at pH 1 at 1 mg/ml measured after 18 to 24 hrs by HPLC-UV based analysis
- Format: physicochemical
- condition set: time 18-24 hrs
measured parameter: solubility (µg/mL)
Your answer is read as µg/mL, so omit the unit and give the number.

Recorded solubility (molecule CC1CN(c2ccncc2NC(=O)c2ccnn3cc(-c4ccccc4)nc23)CCO1 (racemic) ): 1220

---

Quick reference: fraction unbound at 5 h, 10 µM of the listed items.
- test method notes: Plasma protein binding in human assessed as unbound fraction at 10 uM measured for 5 hrs by equilibrium dialysis based LC-MS/MS analysis
- Format: ADME, cell-free
Lab note: jot the number down without any unit.

For this compound ( O=C(Nc1cnccc1N1CCOCC1)c1ccnn2cc(-c3ccccc3)nc12 ), measured fraction unbound at 5 h, 10 µM is 0.012

Entry CC1CN(c2ccncc2NC(=O)c2ccnn3cc(-c4ccccc4)nc23)CCO1 (racemic) ; fraction unbound at 5 h, 10 µM = 0.008

Sample O=C(Nc1cnccc1-c1ccc(F)cc1)c1ccnn2cc(-c3ccccc3)nc12 ; fraction unbound at 5 h, 10 µM observed: 0.003

So, CC1CN(c2ccncc2NC(=O)c2ccnn3cc(C4CC4)nc23)CCO1 (stereo unspecified) ? Its fraction unbound at 5 h, 10 µM was 0.015

Next compound, please.
Value of measured fraction unbound at 5 h, 10 µM for the entry O=C(Nc1cnccc1N1CCC(F)(F)CC1)c1ccnn2cc(-c3ccccc3)nc12 : 0.005

---

- experimental target: Casein kinase II subunit alpha' (Homo sapiens, UniProt P19784)
- Sequence (P19784 whole entry): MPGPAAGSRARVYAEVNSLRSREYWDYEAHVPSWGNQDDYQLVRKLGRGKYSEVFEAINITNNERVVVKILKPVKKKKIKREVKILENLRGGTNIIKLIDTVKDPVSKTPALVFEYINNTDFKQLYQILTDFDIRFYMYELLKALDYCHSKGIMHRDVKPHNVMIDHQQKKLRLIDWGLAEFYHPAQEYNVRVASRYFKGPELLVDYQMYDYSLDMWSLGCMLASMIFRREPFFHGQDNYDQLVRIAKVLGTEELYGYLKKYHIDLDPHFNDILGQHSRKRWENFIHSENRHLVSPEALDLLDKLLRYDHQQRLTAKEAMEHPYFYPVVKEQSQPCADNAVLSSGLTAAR
- test method notes: Inhibition of CK2A2 (unknown origin)
pIC50: −log10 of the molar value.
measured parameter: pIC50

Documented pIC50 of CC1CN(c2ccncc2NC(=O)c2ccnn3cc(-c4ccccc4)nc23)CCO1 (racemic) : < 5.70

---

- experimental target: MAP kinase-activated protein kinase 2 (Homo sapiens, UniProt P49137)
- Sequence (P49137 whole entry): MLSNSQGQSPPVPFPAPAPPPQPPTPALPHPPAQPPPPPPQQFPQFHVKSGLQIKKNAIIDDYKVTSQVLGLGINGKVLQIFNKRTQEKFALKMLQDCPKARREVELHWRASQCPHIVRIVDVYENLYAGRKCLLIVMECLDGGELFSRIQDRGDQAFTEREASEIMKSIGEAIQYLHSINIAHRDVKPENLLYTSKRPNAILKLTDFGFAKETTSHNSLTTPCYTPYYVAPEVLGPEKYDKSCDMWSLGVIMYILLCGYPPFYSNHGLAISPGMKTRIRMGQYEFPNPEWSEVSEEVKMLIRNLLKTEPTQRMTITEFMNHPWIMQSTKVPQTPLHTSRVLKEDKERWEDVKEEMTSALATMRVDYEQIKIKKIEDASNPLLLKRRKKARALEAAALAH
- test method notes: Inhibition of MK2 (unknown origin)
pIC50: −log10 of the molar value.
measured parameter: pIC50

Note to self: pIC50 recorded for CC1CN(c2ccncc2NC(=O)c2ccnn3cc(-c4ccccc4)nc23)CCO1 (racemic) was < 4.30
